Test system: NCI-H460
Assay: NCI tumour cell line growth inhibition, 48 h
The source made the active and inactive calls. Cut-off read from the data, not from the text of the source: active = GI50 up to about 1.1 µM and inactive = higher.
Hi! Could you answer with just one of these? y (active), n (inactive)

| COMPOUND | CLASS LABEL |
| --- | --- |
| OCCN(CCO)c1ccc2c(c1)Cc1ccccc1-2 | n |

Q: For this compound, state the assay outcome: COc1ccc(C2CC(=O)CC(c3ccc(OC)cc3)C23C(=O)NC(=S)NC3=O)cc1 (stereo not given)
A: n

Q: Fill in: this test's call for C#CC(O)/C=C/CCCCCCC#CC/C=C\CC#CCCCCCCCCC(O)C#C (stereo not given) is ___
A: n

Q: Hi team, can someone confirm the assay call for `O=C1CNCCCN2CCN(CCCNCC(=O)Nc3ccc(cc3)S(=O)(=O)c3ccc(cc3)NC(=O)CNCCCN3CCN(CCCNCC(=O)Nc4ccc(cc4)S(=O)(=O)c4ccc(cc4)N1)CC3)CC2` ?
A: n

Q: Recorded call for C[C@]12CC[C@H](OC3CCCCO3)CC1=CC[C@@H]1C2CC[C@]2(C)/C(=N/O)CCC12 (stereo not given in full) ?
A: n

Q: Can you look up the reported call for `O=c1c(-c2ccccc2)c(SCCN2CCCC2)n(-c2ccccc2)c(=S)n1-c1ccccc1` for me?
A: n

Q: Which outcome did this test record for the compound `CCCCCC(=O)OC[n+]1ccc2c(C)c3[nH]c4ccccc4c3c(C)c2c1` ?
A: y

Q: Recorded call for `CC(=O)N1CCN(CCCCN2c3ccccc3Sc3cc(N=[N+]=[N-])ccc32)CC1` ?
A: n

Q: Query: recorded result category for O=C1OCC2=C1C(c1ccc(Cl)cc1)c1cc3c(cc1O2)OCO3 (stereo not given) in this test
A: n

Q: Tell me the assay call for `Nc1nc(=O)[nH]c2c1cnn2Cc1ccccc1` please.
A: n

Q: Could you please tell me the result logged for `COc1cccc(N(CN2CC=CC2=O)C(C)=O)c1` in this assay?
A: n

Q: Test call, this compound: CC(Oc1ccccc1)C(=O)NN (stereo not given)
A: n

Q: Per the records of this test, what outcome belongs to O=C1c2c[nH]nc2C(c2ccccc2)N1c1ccccc1 (stereo not given) ?
A: n

Q: Dear colleague, could you share the recorded outcome for COC1=CC2(CC(OC)=C1OC)OC21COc2ccccc2C1=O (stereo not given) when you have a moment?
A: n

Q: Called result for `C(=C1\CCC/C(=C/c2ccccc2)C1=NNc1ccccc1)/c1ccccc1`
A: n

Q: Please state the recorded outcome for this compound: COP(=O)(OC)C(=O)N1N(c2ccc([N+](=O)[O-])cc2)C(=O)C(C)NC1(NNc1ccc([N+](=O)[O-])cc1)P(=O)(OC)OC (stereo not given)
A: n

Q: // param item: COC(=O)C1CCC(N2C(=O)CCC2C(=O)OC)=N1 (stereo not given) ; yields the recorded call
A: n

Q: What was the test verdict on `COc1ccc(-c2csc(=[N+]3CCCCC3)s2)cc1` ?
A: n

Q: Can you look up the reported call for COC(=O)[C@H](Cc1ccccc1)NP(=O)(OCCC#N)OCC1OC(n2cc(C)c(=O)[nH]c2=O)CC1N=[N+]=[N-] (stereo not given in full) for me?
A: n

Q: Assay result, entry `COc1ccc(-c2coc3c4c(ccc3c2=O)OCO4)cc1OC` — outcome?
A: n
